- Experiment Notes: in vivo
- Measurement Parameters: male, Sprague Dawley, rat, po, 2 mg/kg
Readout Label: AUC(0-t)

Compound	Readout Label	Value Reported
[2H]C([2H])([2H])C(O)(C#Cc1cccc(COc2cc(-c3cnn(C4CCN(C)CC4)c3)cnc2N)c1)C([2H])([2H])[2H] [D]	AUC(0-t)	9.94 ng·h/mL

====

- Experiment Notes: in vivo
- Measurement Parameters: male, Sprague Dawley, rat, po, 3 mg/kg
Readout Label: bioavailability (%)

Molecule Smiles	Readout Label	Value Reported
[2H]C([2H])(Oc1cc(-c2cnn(C3CCN(C)CC3)c2)cnc1N)c1cccc(C#CC(C)(C)O)c1	bioavailability	9.52

====

- Experiment Notes: in vivo
- Measurement Parameters: male, Sprague Dawley, rat, po, 10 mg/kg
Entries and their bioavailability
Readout Label: bioavailability (%)

Compound	Readout Label	Value Reported
[2H]C([2H])([2H])N1CCC(n2cc(-c3cnc(N)c(OCc4cccc(C#CC(C)(C)O)c4)c3)cn2)CC1	bioavailability	23.2
CN1CCC(n2cc(-c3cnc(N)c(OCc4cccc(C#CC(C)(C)O)c4)c3)cn2)CC1 [Compound A1, reference compound]	bioavailability	6.84

====

- Experiment Notes: in vivo
- Measurement Parameters: male, Sprague Dawley, rat, po, 2 mg/kg

Molecule Smiles	Reading Unit	bioavailability
[2H]C([2H])([2H])C(O)(C#Cc1cccc(COc2cc(-c3cnn(C4CCN(C)CC4)c3)cnc2N)c1)C([2H])([2H])[2H]	%	5.2

====

- Experiment Notes: in vivo
- Measurement Parameters: male, Sprague Dawley, rat, iv, 0.3 mg/kg

Molecule Smiles	Reading Unit	AUC(0-t)
[2H]C([2H])([2H])C(O)(C#Cc1cccc(COc2cc(-c3cnn(C4CCN(C)CC4)c3)cnc2N)c1)C([2H])([2H])[2H]	ng·h/mL	28.7

====

- Experiment Notes: in vivo
- Measurement Parameters: male, Sprague Dawley, rat, iv, 0.5 mg/kg

Molecule Smiles	Reading Unit	clearance
[2H]C([2H])(Oc1cc(-c2cnn(C3CCN(C)CC3)c2)cnc1N)c1cccc(C#CC(C)(C)O)c1	L/h/kg	6.06

====

- Experiment Notes: in vivo
- Measurement Parameters: male, Sprague Dawley, rat, po, 3 mg/kg
Readout Label: AUC(0-t) (ng·h/mL)

Compound	Value Reported
[2H]C([2H])(Oc1cc(-c2cnn(C3CCN(C)CC3)c2)cnc1N)c1cccc(C#CC(C)(C)O)c1 [C]	42.8

====

- Experiment Notes: in vivo
- Measurement Parameters: male, cynomolgus monkey, iv, 1 mg/kg
Entries and their AUC(0-t)
Readout Label: AUC(0-t) (ng·h/mL)

Compound	Value Reported
CN1CCC(n2cc(-c3cnc(N)c(OCc4cccc(C#CC(C)(C)O)c4)c3)cn2)CC1 [Compound A1, reference compound]	881
[2H]C([2H])([2H])N1CCC(n2cc(-c3cnc(N)c(OCc4cccc(C#CC(C)(C)O)c4)c3)cn2)CC1 [Compound A2]	949

====

Entries and their bioavailability
- Experiment Notes: in vivo
- Measurement Parameters: male, cynomolgus monkey
Readout Label: bioavailability (%)

Compound	Value Reported
[2H]C([2H])([2H])N1CCC(n2cc(-c3cnc(N)c(OCc4cccc(C#CC(C)(C)O)c4)c3)cn2)CC1	18.8
CN1CCC(n2cc(-c3cnc(N)c(OCc4cccc(C#CC(C)(C)O)c4)c3)cn2)CC1 [Compound A1, reference compound]	4.61
